For each of the molecules below, state its melting point.

Q. Looking for the measured melting point of CN(C)NC(=O)NC(C(=O)O)c1cccs1 (stereo not given) , can you help?
A. 208 to 210 °C

Q. Looking for the measured melting point of COc1cc(-c2cnn3c(-c4cccc(NC(=O)CC(C)C)c4)ccnc23)cc(OC)c1OC , can you help?
A. 86 to 90 °C

Q. Looking for the measured melting point of CC1Cc2cc3c(cc2C(c2ccc([N+](=O)[O-])cc2)=NN1c1ccc(Cl)nn1)OCO3 (stereo not given) , can you help?
A. 254 to 255 °C

Q. Looking for the measured melting point of COC1=C(OC)C(O)C(CC=C(C)CCC=C(C)CCC=C(C)C)C(C)C1=O (stereo not given) , can you help?
A. 48 to 52 °C

Q. Looking for the measured melting point of CCOC(=O)c1cn(CC)c2cc(-c3csc(C(C)NC(C)=O)n3)c(F)cc2c1=O (stereo not given) , can you help?
A. 236 to 238 °C

Q. Looking for the measured melting point of O=C1COCC2=C1C(c1ccc(F)c(I)c1)C1=C(CCS1)N2 (stereo not given) , can you help?
A. > 260 °C

Q. Looking for the measured melting point of CNCC1Cc2cc(Cl)cc(-c3cccc(OC)c3OC)c2O1 (stereo not given) , can you help?
A. 105 to 107 °C

Q. Looking for the measured melting point of CCc1c(C(=O)O)c(C(F)F)nc(C(F)(F)F)c1C(=O)O , can you help?
A. 237 to 239 °C

Q. Looking for the measured melting point of N#Cc1ccc(COc2ccc(C(=O)NC[C@@H](C(=O)NO)N3CCCCC3)cc2)cc1 , can you help?
A. 134 °C

Q. Looking for the measured melting point of Fc1ccc(Nc2ncnc3cnc(N4CCN(c5ccncc5)CC4)nc23)cc1Cl , can you help?
A. 248 to 250 °C

* * *

For each of the compounds below, state its melting point.

Q. Looking for the measured melting point of Nc1cccc(CN/C=C2\C(=O)NC(=O)c3ccc(Br)cc32)c1 , can you help?
A. 214 to 215 °C

Q. Looking for the measured melting point of c1ccc(-n2c(Cc3cccnc3)nc3ccccc32)cc1 , can you help?
A. 115 to 116 °C

Q. Looking for the measured melting point of CCN1CC(=O)N(C)c2cc(Nc3ncc(Cl)c(Nc4ccc(OC)c(CNCCO)c4)n3)c(OC)cc2C1 , can you help?
A. 65 to 70 °C

Q. Looking for the measured melting point of O=C1c2c(oc3ccccc23)-c2ccc(O)c3cccc1c23 , can you help?
A. 374 °C

Q. Looking for the measured melting point of Cn1nc(-c2c(Cl)cncc2Cl)nc1Cc1ccc(Cl)cc1 , can you help?
A. 142 to 143 °C

Q. Looking for the measured melting point of Cc1cc(C)cc(Sc2c(C)c[nH]c(=O)c2NC=O)c1 , can you help?
A. 221 to 222 °C

Q. Looking for the measured melting point of CC[C@H](C)[C@H](NS(=O)(=O)c1cccc2ccccc12)C(=O)N[C@H]1CCOC1OC (stereo not given in full) , can you help?
A. 125 to 127 °C

Q. Looking for the measured melting point of O=Cc1oc(-c2ccccc2)nc1CO , can you help?
A. 134 to 135 °C

Q. Looking for the measured melting point of OCC(O)Cc1nccn1CCCCc1ccc(OCc2coc(/C=C/c3ccc(F)cc3F)n2)cc1 (stereo not given) , can you help?
A. 126 to 128 °C

Q. Looking for the measured melting point of O=C1Cc2cccc(Sc3ccc(Cl)cc3)c2N1 , can you help?
A. 186 to 188 °C
